Target: T1, human-CD40-monomer protein (human, UniProt P25942 21-193, limits assumed)
T1 construct: Soluble monomer generated in house, used as SPR analyte; also called hCD40; hCD40-monomer
T1 sequence (P25942 21-193 limits assumed): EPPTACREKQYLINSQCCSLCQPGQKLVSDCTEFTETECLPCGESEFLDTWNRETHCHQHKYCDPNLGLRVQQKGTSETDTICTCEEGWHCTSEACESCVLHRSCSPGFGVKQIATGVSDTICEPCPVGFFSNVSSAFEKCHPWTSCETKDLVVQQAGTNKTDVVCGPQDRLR
Test: SPR, Ab captured on protein A, hCD40 monomer 500 and 50 nM, 1:1 fit; supernatant

binder	kon
Y12XX-hz37 (antibody, human IgG1, kappa, V domains shown, Humanized, IgG1-P238K; supernatant sample) VH: QVQLVQSGAEVKKPGSSVKVSCKASGYAFTSYWMHWVRQAPGQGLEWMGQINPSNGRSQYNEKFKTRVTITADKSTSTAYMELSSLRSEDTAVYYCARWGLQPFAYWGQGTLVTVSS VL: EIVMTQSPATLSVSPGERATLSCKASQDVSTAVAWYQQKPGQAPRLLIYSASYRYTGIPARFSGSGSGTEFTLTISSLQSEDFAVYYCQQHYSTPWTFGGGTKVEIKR	260000 M⁻¹ s⁻¹
Y12XX-hz3 (antibody, human IgG1, kappa, V domains shown, Humanized, IgG1-P238K; supernatant sample) VH: QVQLVQSGAEVKKPGSSVKVSCKASGYAFTSYWMHWVRQRPGQGLEWIGFINPTTGYSEYNQKFKDRVTITADKSTSTAYMELNSLRSEDTAVYYCARWGLPPFAYWGQGTLVTVSS VL: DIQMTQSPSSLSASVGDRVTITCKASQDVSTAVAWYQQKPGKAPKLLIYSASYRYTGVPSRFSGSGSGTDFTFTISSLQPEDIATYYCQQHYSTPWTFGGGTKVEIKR	15000 M⁻¹ s⁻¹
Y12XX-hz6 (antibody, human IgG1, kappa, V domains shown, Humanized, IgG1-P238K; supernatant sample) VH: QVQLVQSGAEVKKPGSSVKVSCKASGYAFTSYWMHWVRQRPGQGLEWIGYINPTTGYSAYNQKFKDKATLTADKSTSTAYMELNSLRSEDTAVYYCARWDPRPFAYWGQGTLVTVSS VL: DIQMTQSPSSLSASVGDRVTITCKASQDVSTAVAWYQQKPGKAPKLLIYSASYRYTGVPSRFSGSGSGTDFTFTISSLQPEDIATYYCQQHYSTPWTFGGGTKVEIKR	380000 M⁻¹ s⁻¹
Y12XX-hz33 (antibody, human IgG1, kappa, V domains shown, Humanized, IgG1-P238K; supernatant sample) VH: QVQLVQSGAEVKKPGSSVKVSCKASGYAFTSYWMHWVRQRPGQGLEWMGYINPTTGYSAYNQKFKDKATLTADKSTSTAYMELSSLRSEDTAVYYCARWDPRPFAYWGQGTLVTVSS VL: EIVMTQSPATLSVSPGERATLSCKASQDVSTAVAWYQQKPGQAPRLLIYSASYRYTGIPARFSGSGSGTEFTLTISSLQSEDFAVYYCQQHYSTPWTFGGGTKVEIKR	290000 M⁻¹ s⁻¹
Y12XX-hz2 (antibody, human IgG1, kappa, V domains shown, Humanized, IgG1-P238K; supernatant sample) VH: QVQLVQSGAEVKKPGSSVKVSCKASGYAFTSYWMHWVRQRPGQGLEWMGFINPTTGYSEYNQKFKDRVTITADKSTSTAYMELSSLRSEDTAVYYCARWGLPPFAYWGQGTLVTVSS VL: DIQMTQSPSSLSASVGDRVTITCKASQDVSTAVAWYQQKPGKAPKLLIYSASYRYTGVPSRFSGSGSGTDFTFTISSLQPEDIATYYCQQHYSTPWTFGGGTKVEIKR	17000 M⁻¹ s⁻¹
Y12XX-hz19 (antibody, human IgG1, kappa, V domains shown, Humanized, IgG1-P238K; supernatant sample) VH: QVQLVQSGAEVKKPGSSVKVSCKASGYAFTSYWMHWVRQRPGQGLEWMGYINPTTGYSAYNQKFKDKATLTADKSTSTAYMELSSLRSEDTAVYYCARWDPRPFAYWGQGTLVTVSS VL: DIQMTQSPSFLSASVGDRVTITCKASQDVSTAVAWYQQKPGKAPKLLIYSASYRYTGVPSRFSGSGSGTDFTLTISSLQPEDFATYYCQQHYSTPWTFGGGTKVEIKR	380000 M⁻¹ s⁻¹
